Attribution: the supplement of paper PMC7877785

# PROCEDURE DETAILS: self-splicing fitness, log relative to wild type (ln ratio); higher = more splicing; Tetrahymena group I intron in knt gene, E. coli kanamycin selection, DiMSum; sequences stand for … in CUCUCU…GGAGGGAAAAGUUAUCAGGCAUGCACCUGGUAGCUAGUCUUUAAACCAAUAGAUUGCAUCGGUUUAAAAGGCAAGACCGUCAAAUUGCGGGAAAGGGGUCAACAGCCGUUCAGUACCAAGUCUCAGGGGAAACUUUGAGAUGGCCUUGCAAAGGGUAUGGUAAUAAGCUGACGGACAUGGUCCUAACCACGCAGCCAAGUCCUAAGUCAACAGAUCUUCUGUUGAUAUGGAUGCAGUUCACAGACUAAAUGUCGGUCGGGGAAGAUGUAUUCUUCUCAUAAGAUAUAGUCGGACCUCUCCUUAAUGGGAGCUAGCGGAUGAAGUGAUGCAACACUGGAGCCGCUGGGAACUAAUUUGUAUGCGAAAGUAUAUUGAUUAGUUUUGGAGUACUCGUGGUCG;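 also: selection with 25 µg/mL kanamycin versus none on LB agar overnight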
# MEASUREMENT CONDITIONS: 30 °C
Kindly state self-splicing fitness (ln) for each of the entries shown.
I only need the number, thanks.

Item under review: `CCUCAGCAAUAUUACGACUU` . Reported self-splicing fitness (ln)?
-3.69

Requested read-out: self-splicing fitness (ln). Entry: `ACUAAGCAAUAUUACGCGCC`
0.0442

Query (sequence): `AUGGAGCAAUAUUACGUGAC` ; field requested: self-splicing fitness (ln)
-1.88

Field request: self-splicing fitness (ln) | item: `AACAAGCAAUAUUACGGAUG`
-2.4

What measured self-splicing fitness (ln) goes with `CUCCAGCAAUAUUACGAUAA` ?
-3.22

Value lookup for self-splicing fitness (ln); key = `CAAGAGCAAUAUUACGACGA`
-3.01

Fill in the blank: the reported self-splicing fitness (ln) of `GGCAAGCAAUAUUACGUUCC` is ____.
-1.43

Requested read-out: self-splicing fitness (ln). Entry: `AUUUAGCAAUAUUACGUGAA`
-2.53

Need self-splicing fitness (ln) of `CCUCAGCAAUAUUACGUGUA` , thanks.
-2.19

Recorded self-splicing fitness (ln) of `UUGCAGCAAUAUUACGGCUG` , please.
-3.43

Field request: self-splicing fitness (ln) | item: `UUACAGCAAUAUUACGUGAC`
-3.7

Any idea what self-splicing fitness (ln) was measured for `AAAUAGCAAUAUUACGCACG` ?
-1.59

Would you kindly share the measured self-splicing fitness (ln) for `GCCGAGCAAUAUUACGCUUC` ?
-2.53

Please report the recorded self-splicing fitness (ln) for `AUAGAGCAAUAUUACGUUGC` .
-2.95

Look at this sequence and give its reported self-splicing fitness (ln). `CUACAGCAAUAUUACGAUAG`
-2.04

# self-splicing fitness (ln) lookup, item `CACAAGCAAUAUUACGAUUU`
-4.17

====

# PROCEDURE DETAILS: self-splicing fitness, log relative to wild type (ln ratio); higher = more splicing; Tetrahymena group I intron in knt gene, E. coli kanamycin selection, DiMSum; sequences stand for … in CUCUCU…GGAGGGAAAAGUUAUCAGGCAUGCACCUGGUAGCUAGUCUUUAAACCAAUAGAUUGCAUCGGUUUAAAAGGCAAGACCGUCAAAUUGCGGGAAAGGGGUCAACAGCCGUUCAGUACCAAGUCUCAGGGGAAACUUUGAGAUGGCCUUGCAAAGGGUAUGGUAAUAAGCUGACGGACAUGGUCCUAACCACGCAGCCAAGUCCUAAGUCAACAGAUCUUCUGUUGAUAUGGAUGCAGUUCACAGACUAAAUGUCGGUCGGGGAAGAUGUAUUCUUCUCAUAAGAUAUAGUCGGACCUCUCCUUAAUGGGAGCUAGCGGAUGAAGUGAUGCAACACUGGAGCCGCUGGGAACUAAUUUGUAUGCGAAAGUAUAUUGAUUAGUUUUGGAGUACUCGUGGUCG
# MEASUREMENT CONDITIONS: 37 °C
Record form. Attribute: self-splicing fitness (ln). Fill in for each entry.
Just the number, please.

# lookup: self-splicing fitness (ln) of `UCACAGCAAUAUUACGUACG`
-0.747

Data request, read-out self-splicing fitness (ln), for `GUAGAGCAAUAUUACGCAAC`
-0.94

Fill in the blank: the reported self-splicing fitness (ln) of `CGACAGCAAUAUUACGAGCA` is ____.
-1.26

Given the sequence `CAAAAGCAAUAUUACGAAGA` , what is its reported self-splicing fitness (ln)?
-1.43

Can you share its self-splicing fitness (ln)? I mean this sequence: `GUUCAGCAAUAUUACGUCAG`
-3.07

I have this sequence here, `GUUCAGCAAUAUUACGGAGU` , and I need its recorded self-splicing fitness (ln).
-0.963

// returns reported self-splicing fitness (ln) for input `UAUAAGCAAUAUUACGUCCU`
0.43

Entry `ACGUAGCAAUAUUACGGGAG` : reported self-splicing fitness (ln) = ?
-2.28

====

# PROCEDURE DETAILS: self-splicing fitness, log relative to wild type (ln ratio); higher = more splicing; Tetrahymena group I intron in knt gene, E. coli kanamycin selection, DiMSum; sequences stand for … in CUCUCU…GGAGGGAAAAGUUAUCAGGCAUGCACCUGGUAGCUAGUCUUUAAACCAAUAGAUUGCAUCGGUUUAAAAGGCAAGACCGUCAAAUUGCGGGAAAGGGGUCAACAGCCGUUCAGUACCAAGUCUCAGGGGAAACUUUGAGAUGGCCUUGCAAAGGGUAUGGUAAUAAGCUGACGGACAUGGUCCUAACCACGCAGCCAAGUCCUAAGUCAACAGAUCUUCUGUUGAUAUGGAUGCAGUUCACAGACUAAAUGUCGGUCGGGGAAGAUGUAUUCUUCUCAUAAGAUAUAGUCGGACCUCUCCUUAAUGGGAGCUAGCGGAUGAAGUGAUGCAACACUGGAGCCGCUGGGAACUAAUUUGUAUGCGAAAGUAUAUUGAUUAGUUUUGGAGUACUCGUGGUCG
# MEASUREMENT CONDITIONS: 30 °C
Would you mind labelling by self-splicing fitness (ln)? At or over -3 is fulfilled, under is not fulfilled.

Quick check: does `ACGGAGCAAUAUUACGCGUA` have self-splicing fitness (ln) greater than or equal to -3?
fulfilled

Could you tell me if the measured self-splicing fitness (ln) of `GAGCAGCAAUAUUACGCUUU` reaches -3 or more?
fulfilled

Evaluate `CGUCAGCAAUAUUACGUAGU` : self-splicing fitness (ln) at minimum -3?
fulfilled

Does self-splicing fitness (ln) meet or surpass -3 for `CUGAAGCAAUAUUACGUAAG` ?
fulfilled

Assess whether reported self-splicing fitness (ln) for `CCCGAGCAAUAUUACGGUAG` sits at -3 or higher.
not fulfilled

# check: self-splicing fitness (ln) of `ACGUAGCAAUAUUACGAAUG` is greater than or equal to -3
fulfilled

Test whether the sequence `GCUCAGCAAUAUUACGGUUU` records self-splicing fitness (ln) of -3 or higher.
fulfilled

Does `CAUAAGCAAUAUUACGUUUG` have a reported self-splicing fitness (ln) of at least -3?
not fulfilled

Kindly determine if self-splicing fitness (ln) recorded for `CACGAGCAAUAUUACGAUGU` is above or exactly -3.
not fulfilled

Hi, just wondering whether `GAAUAGCAAUAUUACGAUUU` shows self-splicing fitness (ln) of -3 or higher.
fulfilled

Could you verify whether the entry `AAAAAGCAAUAUUACGUCCG` shows self-splicing fitness (ln) of no less than -3?
fulfilled

Check the entry `GGUUAGCAAUAUUACGUUUG` : does self-splicing fitness (ln) equal or exceed -3?
not fulfilled

Reported self-splicing fitness (ln) at or above -3? `AGAUAGCAAUAUUACGACUG`
fulfilled

Quick check, self-splicing fitness (ln) >= -3? `AUCAAGCAAUAUUACGUGUC`
not fulfilled

Check if self-splicing fitness (ln) >= -3 (inclusive). Item: `CACGAGCAAUAUUACGAUUG`
fulfilled

Given the entry `UACUAGCAAUAUUACGGAUC` , answer whether its self-splicing fitness (ln) meets or surpasses -3.
fulfilled

====

# PROCEDURE DETAILS: self-splicing fitness, log relative to wild type (ln ratio); higher = more splicing; Tetrahymena group I intron in knt gene, E. coli kanamycin selection, DiMSum; sequences stand for … in CUCUCU…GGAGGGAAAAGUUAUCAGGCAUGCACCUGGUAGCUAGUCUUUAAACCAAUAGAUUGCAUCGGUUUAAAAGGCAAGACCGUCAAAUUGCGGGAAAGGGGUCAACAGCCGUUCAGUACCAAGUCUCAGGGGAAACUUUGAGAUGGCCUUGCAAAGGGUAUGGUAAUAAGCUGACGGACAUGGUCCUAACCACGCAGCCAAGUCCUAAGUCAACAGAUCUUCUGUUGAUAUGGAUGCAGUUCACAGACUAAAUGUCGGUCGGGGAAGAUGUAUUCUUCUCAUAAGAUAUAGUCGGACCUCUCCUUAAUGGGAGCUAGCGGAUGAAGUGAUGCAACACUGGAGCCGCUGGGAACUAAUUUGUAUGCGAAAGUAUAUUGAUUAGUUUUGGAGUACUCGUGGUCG
# MEASUREMENT CONDITIONS: 30 °C
I would appreciate it if you labelled entries Fulfilled when self-splicing fitness (ln) is -2 or higher, otherwise Not fulfilled.

Hi team, for `CUCAAGCAAUAUUACGUAUU` , is the recorded self-splicing fitness (ln) at or above -2?
Not fulfilled

Exam item: decide whether the reported self-splicing fitness (ln) for `CGCCAGCAAUAUUACGUGUG` is at least -2.
Not fulfilled

For this sequence, is measured self-splicing fitness (ln) -2 or higher? `GUUUAGCAAUAUUACGCGCG`
Fulfilled

Given `CUCAAGCAAUAUUACGCAAC` , state whether its self-splicing fitness (ln) is at least -2.
Not fulfilled

Given `CGUAAGCAAUAUUACGCCGG` , state whether its self-splicing fitness (ln) is at least -2.
Fulfilled

Is self-splicing fitness (ln) at least -2? Consider `AAUUAGCAAUAUUACGUGAA`
Not fulfilled

Is reported self-splicing fitness (ln) greater than or equal to -2 here: `CUUCAGCAAUAUUACGGUAG`
Fulfilled

Dear colleague, could you confirm whether `GCUUAGCAAUAUUACGUCGU` has self-splicing fitness (ln) at or above -2?
Fulfilled

Could you please find out whether `UGGAAGCAAUAUUACGGUUA` has self-splicing fitness (ln) that meets -2 or exceeds it?
Fulfilled

State whether the measured self-splicing fitness (ln) reaches -2, counting equality as reaching it, for `UGUUAGCAAUAUUACGAUCC`
Fulfilled

Decide: self-splicing fitness (ln) of `AUCCAGCAAUAUUACGUCGC` >= -2?
Not fulfilled

Check the entry `AUUGAGCAAUAUUACGGGAU` : does self-splicing fitness (ln) equal or exceed -2?
Not fulfilled

Record `AGUAAGCAAUAUUACGAGUA` ; criterion: self-splicing fitness (ln) no lower than -2. Met?
Not fulfilled

Is it the case that `UGUAAGCAAUAUUACGAGAG` has self-splicing fitness (ln) reaching or exceeding -2?
Not fulfilled

// inclusive: self-splicing fitness (ln) at least -2? input: `AGUUAGCAAUAUUACGGUAA`
Not fulfilled

Record `CACAAGCAAUAUUACGCAGG` ; criterion: self-splicing fitness (ln) no lower than -2. Met?
Not fulfilled

Reported self-splicing fitness (ln) reaches at least -2 for `AAGAAGCAAUAUUACGACUC` ?
Fulfilled

Given `AUUGAGCAAUAUUACGGAUA` , state whether its self-splicing fitness (ln) is at least -2.
Not fulfilled

hey, is self-splicing fitness (ln) for this one >= -2? `GGAAAGCAAUAUUACGGCUA`
Fulfilled

Does self-splicing fitness (ln) meet or surpass -2 for `GCCAAGCAAUAUUACGUAGU` ?
Fulfilled

Could you verify whether the entry `GGAAAGCAAUAUUACGCCAU` shows self-splicing fitness (ln) of no less than -2?
Fulfilled

Item `UCGCAGCAAUAUUACGUCCC` with self-splicing fitness (ln) of -2 or above?
Not fulfilled

Check the entry `GAGUAGCAAUAUUACGUUCU` : does self-splicing fitness (ln) equal or exceed -2?
Not fulfilled

Does `GCGUAGCAAUAUUACGGUUC` have a reported self-splicing fitness (ln) of at least -2?
Not fulfilled

Assess whether reported self-splicing fitness (ln) for `UGCUAGCAAUAUUACGAUCU` sits at -2 or higher.
Fulfilled

Hello, I need to know if `GCGAAGCAAUAUUACGACAC` has measured self-splicing fitness (ln) not below -2. Thanks!
Fulfilled

hey, is self-splicing fitness (ln) for this one >= -2? `UAAGAGCAAUAUUACGUCGG`
Not fulfilled

Could you verify whether the entry `AGAUAGCAAUAUUACGGACU` shows self-splicing fitness (ln) of no less than -2?
Fulfilled

Say whether `GACCAGCAAUAUUACGCCGG` shows self-splicing fitness (ln) of -2 or more.
Not fulfilled

Decide: is the reported value of self-splicing fitness (ln) for `CCACAGCAAUAUUACGACUG` equal to or greater than -2?
Not fulfilled

// inclusive: self-splicing fitness (ln) at least -2? input: `UACCAGCAAUAUUACGAGUG`
Fulfilled

Dear colleague, could you confirm whether `UUUUAGCAAUAUUACGCGAA` has self-splicing fitness (ln) at or above -2?
Fulfilled
